Reference source for all entries: patent US20180057604A1

MEASURED_ON: T1, human TfR extracellular domain with N-terminal His tag (human, UniProt P02786 89-760)
T1 construct: Biotinylated in some assays; also called huTfR; HuTfR
TEST_SUMMARY: ELISA, TfR-coated plate, IgG in culture supernatant;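 note: human or cynomolgus TfR coated at 2 µg/mL, supernatant IgG titrated in 1:5 steps for 1 h, bound antibody read with HRP anti-human Fcγ and TMB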
ASSAY_METRIC: EC50 (ng/mL)
Report only the number, with the unit ng/mL understood.

Worked examples, 2 binders total:
BINDER	UNIT_OF_MEASURE	EC50
hu15G11.v5 IgG Ala variant T53A (HVR-H2) (antibody, V domains shown, IgG in cell culture supernatant; also called 15G11.T53A; 15G11.53A) VH: EVQLVQSGAEVKKPGASVKVSCKASGYTFTSYWMHWVRQAPGQRLEWIGEINPANGRTNYIEKFKSRATLTVDKSASTAYMELSSLRSEDTAVYYCARGTRAYHYWGQGTMVTVSS VL: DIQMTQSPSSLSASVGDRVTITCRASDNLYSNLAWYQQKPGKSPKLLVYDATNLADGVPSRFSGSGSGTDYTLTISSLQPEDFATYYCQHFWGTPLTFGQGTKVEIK	ng/mL	0.3
hu15G11.v5 IgG Ala variant K62A (HVR-H2) (antibody, name in Kabat numbering, V domains shown, IgG in cell culture supernatant; Kabat numbers after 52a lie one below the linear count) VH: EVQLVQSGAEVKKPGASVKVSCKASGYTFTSYWMHWVRQAPGQRLEWIGEINPTNGRTNYIEAFKSRATLTVDKSASTAYMELSSLRSEDTAVYYCARGTRAYHYWGQGTMVTVSS VL: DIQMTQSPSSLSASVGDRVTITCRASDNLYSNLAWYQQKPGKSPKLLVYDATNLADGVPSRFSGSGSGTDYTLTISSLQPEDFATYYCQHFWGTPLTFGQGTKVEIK	ng/mL	0.3

Next binder, EC50 to be filled in.
stdin: Which EC50 is listed for hu15G11.v5 IgG Ala variant F63A (HVR-H2) (antibody, name in Kabat numbering, V domains shown, IgG in cell culture supernatant; Kabat numbers after 52a lie one below the linear count) VH: EVQLVQSGAEVKKPGASVKVSCKASGYTFTSYWMHWVRQAPGQRLEWIGEINPTNGRTNYIEKAKSRATLTVDKSASTAYMELSSLRSEDTAVYYCARGTRAYHYWGQGTMVTVSS VL: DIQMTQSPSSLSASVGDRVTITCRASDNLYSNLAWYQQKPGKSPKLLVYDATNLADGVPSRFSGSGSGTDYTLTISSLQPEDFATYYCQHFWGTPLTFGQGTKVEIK ?
stdout: 0.4
